Reference source for all entries: paper PMC4336329

# hERG current change (%, negative = inhibition) at 10uM per record follows
- Target: human ether-à-go-go-related gene (hERG) potassium channel (human);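 further: peak tail current of the secondary pulse compared with the same well before compound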
- Sequence (Q12809 whole entry, looked up): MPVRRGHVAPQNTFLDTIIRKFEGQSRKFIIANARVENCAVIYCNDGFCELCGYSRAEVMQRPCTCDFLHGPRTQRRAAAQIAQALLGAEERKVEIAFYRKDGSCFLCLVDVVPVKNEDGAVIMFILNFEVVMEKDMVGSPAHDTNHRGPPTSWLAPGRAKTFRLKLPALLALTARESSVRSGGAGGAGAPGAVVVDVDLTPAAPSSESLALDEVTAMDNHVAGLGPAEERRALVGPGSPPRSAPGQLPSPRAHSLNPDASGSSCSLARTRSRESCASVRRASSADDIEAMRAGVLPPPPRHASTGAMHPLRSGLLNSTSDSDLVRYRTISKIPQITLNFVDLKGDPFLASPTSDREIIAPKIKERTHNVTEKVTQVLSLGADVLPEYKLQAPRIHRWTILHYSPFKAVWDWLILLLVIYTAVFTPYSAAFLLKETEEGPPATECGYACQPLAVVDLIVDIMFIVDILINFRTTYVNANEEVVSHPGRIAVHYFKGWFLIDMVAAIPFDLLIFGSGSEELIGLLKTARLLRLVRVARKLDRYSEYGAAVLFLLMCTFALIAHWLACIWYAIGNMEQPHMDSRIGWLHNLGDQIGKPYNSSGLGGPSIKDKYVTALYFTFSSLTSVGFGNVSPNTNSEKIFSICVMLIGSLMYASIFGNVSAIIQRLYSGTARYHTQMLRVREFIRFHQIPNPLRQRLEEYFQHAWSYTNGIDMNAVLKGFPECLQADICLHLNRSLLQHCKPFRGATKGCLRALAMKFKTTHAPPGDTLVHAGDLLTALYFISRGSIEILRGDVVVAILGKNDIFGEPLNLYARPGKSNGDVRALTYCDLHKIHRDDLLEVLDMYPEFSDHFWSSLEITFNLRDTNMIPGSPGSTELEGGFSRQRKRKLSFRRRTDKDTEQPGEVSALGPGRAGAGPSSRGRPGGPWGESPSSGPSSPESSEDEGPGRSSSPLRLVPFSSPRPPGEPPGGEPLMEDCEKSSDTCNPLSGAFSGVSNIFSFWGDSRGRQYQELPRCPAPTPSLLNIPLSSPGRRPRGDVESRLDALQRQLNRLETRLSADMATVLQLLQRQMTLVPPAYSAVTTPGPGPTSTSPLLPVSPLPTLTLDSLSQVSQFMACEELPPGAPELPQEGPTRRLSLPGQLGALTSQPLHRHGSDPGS
- Test Details: primary screen, population patch clamp on CHO cells stably expressing hERG; higher = less effect of the substance
Hit rate of the full screen: of about 310,000 compounds, about 14,000 (4.5%) showed an effect of 50% or more. Effects have a minus sign here. The full list was thinned out, with strong results kept by preference.
Reported Metric: hERG current change (%, negative = inhibition) at 10uM (%)

Cc1cccc(NC(=O)CN2CCN(C(=O)C3CCN(C(=O)/C=C/c4ccccc4)CC3)CC2)c1C : -73.9
O=C1CCC(C(=O)Nc2ccc(Cl)cc2)N1 (stereo not drawn) : 28
CCC(=O)N1N=C(c2ccccc2)CC1c1ccc([N+](=O)[O-])cc1 (stereo not drawn) : -53.4
CCn1cc([N+](=O)[O-])c(C(=O)N2N=C(c3ccccc3)CC2c2ccc([N+](=O)[O-])cc2)n1 (stereo not drawn) : -37.2
CCOc1ccc(OCCC(=O)OCC(=O)NC2CCCCC2)cc1 : 11.4
CN(Cc1ccccc1)C(=O)c1ccccc1NC(=O)c1ccco1 : 20
COC(=O)C1=C(Nc2ccc(OC)cc2)C=C(C)C(C(=O)OC)C1c1ccc(C)cc1 (stereo not drawn) : 18.9
COc1ccc(C2=NN(C(=O)CCC(=O)O)C(c3ccc([N+](=O)[O-])cc3)C2)cc1 (stereo not drawn) : 10.2
CCC(=O)N1N=C(c2ccccc2)CC1c1ccccc1 (stereo not drawn) : 2.71

----------
- Target: human ether-à-go-go-related gene (hERG) potassium channel (human);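 further: peak tail current of the secondary pulse compared with the same well before compound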
- Test Details: primary screen, population patch clamp on CHO cells stably expressing hERG; higher = less effect of the substance
Hit rate of the full screen: of about 310,000 compounds, about 14,000 (4.5%) showed an effect of 50% or more. Effects have a minus sign here. The sample holds strong results, similar compounds and a random draw of the others, so the mix is not that of the screen.
Reported Metric: hERG current change (%, negative = inhibition) at 10uM (%)

CC(=O)N1CCN(C(=O)CNC(=O)c2ccc(Br)o2)CC1 : 22.2
CCCC[C@H](CN[C@@H](CNC)[C@H](C)CC)NCCC12CCC(CC1)C2 : 10.4
Cn1nc([N+](=O)[O-])nc1N1CCOCC1 : 23.7
CCN1CCCC1Cn1cnc2c([nH]c3ccc(C)cc32)c1=O (stereo not drawn) : -70
O=c1c2[nH]c3ccc(F)cc3c2ncn1CC1CCCO1 (stereo not drawn) : -16
CC(C)N(CCn1cnc2c([nH]c3ccccc32)c1=O)C(C)C : -68.1
COc1ccc(CCNC(=O)Cn2nnc3ccccc3c2=O)cc1 : 9.17
CNS(=O)(=O)c1cccc(C(=O)NCC2(N3CCOCC3)CCCCC2)c1 : 9.92
Cc1ccc2[nH]c3c(=O)n(CCN4CCNCC4)cnc3c2c1 : 7.36
Cc1cc(S(=O)(=O)Nc2ccc(C(=O)NCC3(N4CCCCC4)CCCCC3)cc2)ccc1F : -66.4
COc1cc2[nH]c3c(=O)n(CCN(C(C)C)C(C)C)cnc3c2cc1OC : -13.3
CC1CCN(C(=O)C2CCCN(S(=O)(=O)c3cccc4nsnc34)C2)CC1 (stereo not drawn) : -27.8
O=C(COc1ccccc1)Nc1nc(-c2cccs2)cs1 : 5.72
Cc1cc(C(=O)N2CCN(c3ccc(F)cc3)CC2)on1 : -14.5
CCN(CC)C(=O)C1CCC(CNS(=O)(=O)c2cccc3nsnc23)CC1 (stereo not drawn) : 2.47
O=c1c2[nH]c3cccc(Cl)c3c2ncn1CCN1CCCCC1 : -21.9
O=C(C1CCC(CNS(=O)(=O)c2cccc3nsnc23)CC1)N1CC=C(c2ccccc2)CC1 (stereo not drawn) : -10.3
O=C(CCNS(=O)(=O)c1cccc2nsnc12)N1CCN(c2ccccn2)CC1 : -24
Cc1ccc2[nH]c3c(=O)n(Cc4ccncc4)cnc3c2c1 : 4.77
O=C(C1CCCN(S(=O)(=O)c2cccc3nsnc23)C1)N1CCN(c2ccccn2)CC1 (stereo not drawn) : -50.2
Cc1cc(C(=O)N2CCN(c3cc(Cl)ccc3C)CC2)on1 : -58.7
